For each record, write down the corresponding normalised response.
# Test system: MFM-223
# TEST: normalised response (% of control), CellTox Green; higher = less cell death (100 = DMSO, 0 = benzethonium chloride kill control)
# PARTICULARS: incubation time: 72 h
The reply should contain only the number, in %.

input: # return normalised response of C/C(=C\c1csc(C)n1)[C@@H]1C[C@@H]2O[C@]2(C)CCC[C@H](C)[C@H](O)[C@@H](C)C(=O)C(C)(C)[C@@H](O)CC(=O)O1 [Patupilone] (100 nM) (system: MFM-223)
output: 84.1

input: Tell me its normalised response on MFM-223: Cn1cncc1[C@@](N)(c1ccc(Cl)cc1)c1ccc2c(c1)c(-c1cccc(Cl)c1)cc(=O)n2C [Tipifarnib] (10000 nM)
output: 75.5

input: Report measured normalised response on MFM-223; entry: O=C(O)CCCc1ccc(N(CCCl)CCCl)cc1 [Chlorambucil] (100 nM)
output: 98.8

input: Please report the measured normalised response for C[C@]12CC[C@H](O)CC1=CC[C@@H]1[C@@H]2CC[C@]2(C)C(c3cccnc3)=CC[C@@H]12 [Abiraterone] (50 nM) tested on MFM-223.
output: 108

input: Please tell me the measured normalised response for O=C1NC(=O)[C@@H](c2cn3c4c(cccc24)CCC3)[C@@H]1c1c[nH]c2ccccc12 [Tivantinib] (10 nM) ; system: MFM-223.
output: 98.9

input: Param request: normalised response | system MFM-223 | item CN1CCN(CCOc2cc(OC3CCOCC3)c3c(Nc4c(Cl)ccc5c4OCO5)ncnc3c2)CC1 [Saracatinib] (10000 nM)
output: 90.4

input: Under MFM-223, report normalised response for CC(C)c1c(C(=O)Nc2ccccc2)c(-c2ccccc2)c(-c2ccc(F)cc2)n1CC[C@@H](O)C[C@@H](O)CC(=O)O [Atorvastatin] (1000 nM)
output: 89.4
